tested on: T47D cells; experiment: Cell-based assay, cellular growth (Cell Counting Kit-8, 72 hours); conditions: Homo sapiens
Counter-ions that a name gives are not always drawn.

| molecule | tested-system | units-text | IC50 |
| --- | --- | --- | --- |
| C[C@@H](CN(C)C)c1ccc(-c2c(O)ccc3[nH]c(=O)c4sccc4c23)cc1 [Compound 1188, hydrochloride] | T47D cells | nM | 290 |
| Cc1cc(O)c(-c2ccc([C@@H](C)CN(C)C)cc2)c2c1[nH]c(=O)c1sccc12 [Compound 1324, hydrochloride] | T47D cells | nM | 66 |
| CC(CN(C)C)c1ccc(-c2c(O)ccc3[nH]c(=O)c4sccc4c23)cc1 (stereo not shown) [Compound 1112, hydrochloride] | T47D cells | nM | 470 |
| COc1ccc2[nH]c(=O)c3sccc3c2c1-c1ccc(S(=O)(=O)NCCCl)cc1 | T47D cells | nM | 200 |

----------
System: HT-1197 cells
Test: Cell-based assay, cellular growth (Cell Counting Kit-8, 72 hours), PBK-negative control cells
Conditions: Homo sapiens, HT1197, 72 h
Method: 100 micro-L of cell suspension was seeded onto 96-well microtiter plate (ViewPlate-96FTC, PerkinElmer). […] Cellular growth was determined using Cell Counting Kit-8 (DOJINDO) at 72 hours after the exposure of the candidate inhibitors. […] Accurate IC50 values were calculated as described previously.
Structures can show the parent of a compound that is named as a salt.

| molecule | tested-system | IC50 |
| --- | --- | --- |
| CC[C@@H](CNC)c1ccc(-c2c(O)cc(C)c3[nH]c(=O)c4sccc4c23)cc1 [Compound 1380, hydrochloride] | HT-1197 cells | 0.37 µM |
| CC[C@@H](CN)c1ccc(-c2c(O)cc(C)c3[nH]c(=O)c4sccc4c23)cc1 [Compound 1352, hydrochloride] | HT-1197 cells | 0.34 µM |
| Cc1cc(O)c(-c2ccc([C@H](C)CN)c(F)c2)c2c1[nH]c(=O)c1sccc12 [Compound 1303] | HT-1197 cells | 0.51 µM |
| CCN(C)C[C@H](C)c1ccc(-c2c(O)cc(C)c3[nH]c(=O)c4sccc4c23)cc1 [Compound 1379, hydrochloride] | HT-1197 cells | 0.31 µM |

----------
test system: HT-1197 cells; assay: Cell-based assay, cellular growth (Cell Counting Kit-8, 72 hours), PBK-negative control cells; conditions: HT1197 cells (PBK-negative control), hydrobromide
Where a name gives a salt, the structure may show the parent alone.

| molecule | IC50 [nM] |
| --- | --- |
| Cc1cc(O)c(-c2ccc([C@H](C)CN)c(F)c2)c2c1[nH]c(=O)c1sccc12 [Compound 1304, hydrobromide] | 340 |
| CNC[C@H](C)c1ccc(-c2c(O)cc(C)c3[nH]c(=O)c4sccc4c23)cc1 [Compound 1307, hydrobromide] | 150 |
| Cc1cc(O)c(-c2ccc([C@@H](C)CN)c(F)c2)c2c1[nH]c(=O)c1sccc12 [Compound 1319, hydrobromide] | 54 |

----------
target: PBK (Homo sapiens (Human)); assay: Kinase assay (IMAP fluorescence polarization, FITC-labeled histone H3 peptide); type: biochemical; details: PBK 0.8 ng/micro-L, 50 micro-M ATP, 100 nM FITC-labeled histone H3 peptide, room temperature 1 hour; hydrochloride
Sequence (Q96KB5 whole entry): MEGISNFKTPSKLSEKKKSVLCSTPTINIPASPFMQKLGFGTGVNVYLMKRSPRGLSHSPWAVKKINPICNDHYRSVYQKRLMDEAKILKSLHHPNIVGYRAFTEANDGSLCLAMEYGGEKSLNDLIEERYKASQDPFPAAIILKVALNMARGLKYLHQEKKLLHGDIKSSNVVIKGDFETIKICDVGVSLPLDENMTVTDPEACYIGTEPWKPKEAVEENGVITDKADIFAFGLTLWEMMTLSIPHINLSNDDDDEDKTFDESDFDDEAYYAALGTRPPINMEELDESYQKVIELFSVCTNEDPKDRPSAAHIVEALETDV
pIC50: −log10 of the molar value. Where a name gives a salt, the structure may show the parent alone.

| compound | pIC50 |
| --- | --- |
| CNC[C@H](C)c1ccc(-c2c(O)cc(C)c3[nH]c(=O)c4sccc4c23)cc1 [Compound 1306, hydrochloride] | 8.14 |
| Cc1cc(O)c(-c2ccc([C@@H](C)CN)c(F)c2)c2c1[nH]c(=O)c1sccc12 [Compound 1318, hydrochloride] | 8.44 |
